- Test system: MALME-3M melanoma
- Experiment: NCI tumour cell line growth inhibition, 48 h
Would you mind telling me the reported GI50 of each entry?

Would you please look over these solved cases?
INSERT INTO assay_data (item_smiles, readout_name, recorded_measurement) VALUES
  ('C1C[OH+]CCNCC[OH+]CC[OH+]CCN1.O.[Cl-].[Pt+4]', 'GI50', '> 100 µM'),
  ('CO[C@H]1/C=C/[C@@](C)(O)/C=C/C(=O)O[C@H](C)[C@@H](C)CC/C=C/1C', 'GI50', '13.1 µM'),
  ('Cc1cc2c(cc1O)[nH]c1cc3c(cc12)C=CC(C)(C)O3', 'GI50', '10.1 µM');

Respectfully, I request GI50 for each entry included below.
1. Cc1ccc(N(CC(=O)Nc2ccc(S(=O)(=O)NC3CCN(C)CC3)cc2)S(=O)(=O)c2ccc(Cl)cc2)cc1
2. CCCCN1C=CCN(CCCC)C1

1.72 µM
21.2 µM
